biological target: α4β1 integrin (Homo sapiens, UniProt P05556+P13612); construct: adding a volume of 80 μL consisted of 1.3×10^5 Molt4 cells; endogenous in cells; host or cells: Molt4 T-cell leukemia cells; assay: Molt4 T-cell leukemia adhesion assay (inhibition of α4β1-mediated cell adhesion to CS-1 peptide); format: cell-based
Sequence (P13612 34-1032): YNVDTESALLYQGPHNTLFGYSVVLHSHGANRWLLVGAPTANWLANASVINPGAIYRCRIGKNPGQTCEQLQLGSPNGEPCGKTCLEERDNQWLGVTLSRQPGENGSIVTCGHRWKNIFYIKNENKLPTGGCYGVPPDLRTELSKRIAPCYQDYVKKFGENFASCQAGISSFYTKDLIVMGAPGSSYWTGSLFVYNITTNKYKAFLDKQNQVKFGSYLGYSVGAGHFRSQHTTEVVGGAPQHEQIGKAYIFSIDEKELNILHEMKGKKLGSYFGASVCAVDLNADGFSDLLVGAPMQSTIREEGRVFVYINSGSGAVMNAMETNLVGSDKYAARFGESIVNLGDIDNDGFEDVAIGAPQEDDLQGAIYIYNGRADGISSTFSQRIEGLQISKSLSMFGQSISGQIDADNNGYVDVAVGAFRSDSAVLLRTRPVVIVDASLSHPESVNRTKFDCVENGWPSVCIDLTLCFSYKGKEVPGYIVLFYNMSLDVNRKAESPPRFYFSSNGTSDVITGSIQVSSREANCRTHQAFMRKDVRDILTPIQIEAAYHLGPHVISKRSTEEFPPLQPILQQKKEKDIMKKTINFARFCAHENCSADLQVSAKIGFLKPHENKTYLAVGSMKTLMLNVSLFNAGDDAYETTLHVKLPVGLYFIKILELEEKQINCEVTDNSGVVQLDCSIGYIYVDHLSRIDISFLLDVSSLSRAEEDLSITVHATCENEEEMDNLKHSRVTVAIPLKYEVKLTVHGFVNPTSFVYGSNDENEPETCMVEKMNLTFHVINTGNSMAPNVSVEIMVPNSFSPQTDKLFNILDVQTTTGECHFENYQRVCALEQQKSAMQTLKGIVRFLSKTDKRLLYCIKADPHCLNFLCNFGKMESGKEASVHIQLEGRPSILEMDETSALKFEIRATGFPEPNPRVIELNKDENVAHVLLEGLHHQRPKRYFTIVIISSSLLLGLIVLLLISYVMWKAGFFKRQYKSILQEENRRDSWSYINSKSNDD
Sequence (P05556 21-798): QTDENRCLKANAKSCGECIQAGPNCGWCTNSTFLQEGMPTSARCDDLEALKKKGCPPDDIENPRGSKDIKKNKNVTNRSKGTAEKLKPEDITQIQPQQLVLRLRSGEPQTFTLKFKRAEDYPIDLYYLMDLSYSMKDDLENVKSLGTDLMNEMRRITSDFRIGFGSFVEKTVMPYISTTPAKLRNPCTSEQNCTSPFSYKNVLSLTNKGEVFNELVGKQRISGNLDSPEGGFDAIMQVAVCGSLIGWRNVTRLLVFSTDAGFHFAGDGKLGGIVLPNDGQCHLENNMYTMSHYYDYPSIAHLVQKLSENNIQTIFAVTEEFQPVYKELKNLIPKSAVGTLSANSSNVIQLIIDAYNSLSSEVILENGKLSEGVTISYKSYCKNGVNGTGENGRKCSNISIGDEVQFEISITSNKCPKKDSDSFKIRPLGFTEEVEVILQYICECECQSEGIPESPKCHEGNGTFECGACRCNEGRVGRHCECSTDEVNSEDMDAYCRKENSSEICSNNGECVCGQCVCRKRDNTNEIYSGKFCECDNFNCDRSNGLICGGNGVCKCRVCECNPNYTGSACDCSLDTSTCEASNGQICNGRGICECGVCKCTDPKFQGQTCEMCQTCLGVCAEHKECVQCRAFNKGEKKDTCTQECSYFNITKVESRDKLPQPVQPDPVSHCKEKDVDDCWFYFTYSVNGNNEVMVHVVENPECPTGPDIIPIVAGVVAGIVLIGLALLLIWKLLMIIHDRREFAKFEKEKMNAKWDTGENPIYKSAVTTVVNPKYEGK
metric: IC50 (nM)

{"compound": "NC(=O)C1(NC(=O)C(CCCC(=O)O)NC(=O)C(CCCCNC(=O)C=Cc2cccnc2)NC(=O)Cc2ccc(Nc3nc4ccccc4s3)cc2)CCCCC1 (stereo not drawn)", "recorded_number": 0.053}
{"compound": "Cc1cccc2oc(Nc3ccc(CC(=O)NC(CCCCNC(=O)C=Cc4cccnc4)C(=O)NC(CCCC(=O)O)C(=O)NC4(C(N)=O)CCCCC4)cc3)nc12 (stereo not drawn)", "recorded_number": 4}
{"compound": "NC(=O)C1(NC(=O)C(CCCC(=O)O)NC(=O)C(CCCCNC(=O)C=Cc2cccnc2)NC(=O)Cc2ccc(Nc3nc4ccccc4o3)cc2)CCCCC1 (stereo not drawn)", "recorded_number": 2}

###

biological target: α4β1 integrin (Homo sapiens, UniProt P05556+P13612); construct: adding a volume of 80 μL consisted of 1.3×10^5 Molt4 cells; endogenous in cells; host or cells: Molt4 T-cell leukemia cells; assay: Molt4 T-cell leukemia adhesion assay (inhibition of α4β1-mediated cell adhesion to CS-1 peptide); assay type: cell-based; details: Molt4 cells, adhesion to biotin-conjugated CS-1 peptide, 1 mM Mn2+ TBS, 30 min at 37° C.

{"chem_smiles": "NC(=O)C1(NC(=O)[C@H](CCCC(=O)O)NC(=O)[C@H](CCCCNC(=O)/C=C/c2cccnc2)NC(=O)c2ccc(Nc3nc4cc(Br)ccc4[nH]3)cc2)CCCCC1", "unit_of_measurement": "nM", "IC50": 0.115}
